experiment: Pharmacokinetics assay in rats (LC/MS/MS of plasma); assay type: in vivo, Sprague Dawley (SD) rats; conditions: both sexes, Sprague-Dawley, rat, plasma, iv, 25 mg/kg, vein (tail vein injection)
Structures can show the parent of a compound that is named as a salt.
measurement_label: half-life (h)

{"columns": ["compound", "assay_result"],
 "data": [
  ["CCOc1cc2ncc(C#N)c(Nc3ccc(OCc4ccccn4)c(Cl)c3)c2cc1NC(=O)/C=C/[C@H]1CCCN1C [Example 9, dihydrochloride]", 4.75],
  ["CCOc1cc2ncc(C#N)c(Nc3ccc(OCc4ccccn4)c(Cl)c3)c2cc1NC(=O)/C=C/[C@H]1CCCN1C.O=C(O)/C=C\\C(=O)O [Example 1]", 4.92],
  ["CCOc1cc2ncc(C#N)c(Nc3ccc(OCc4ccccn4)c(Cl)c3)c2cc1NC(=O)/C=C/[C@H]1CCCN1C.Cc1ccc(S(=O)(=O)O)cc1 [Example 7]", 3.12],
  ["CCOc1cc2ncc(C#N)c(Nc3ccc(OCc4ccccn4)c(Cl)c3)c2cc1NC(=O)/C=C/[C@H]1CCCN1C.CS(=O)(=O)O [Example 4]", 3.77]
]}

* * *

test: Pharmacokinetics assay in rats (LC/MS/MS of plasma); assay type: in vivo, Sprague Dawley (SD) rats; conditions: both sexes, Sprague-Dawley, rat, plasma, po, 25 mg/kg, gavage, read-out: Cmax
Structures can show the parent of a compound that is named as a salt.

{"columns": ["molecule", "Cmax, ng/mL"],
 "data": [
  ["CCOc1cc2ncc(C#N)c(Nc3ccc(OCc4ccccn4)c(Cl)c3)c2cc1NC(=O)/C=C/[C@H]1CCCN1C.CS(=O)(=O)O", 6920],
  ["CCOc1cc2ncc(C#N)c(Nc3ccc(OCc4ccccn4)c(Cl)c3)c2cc1NC(=O)/C=C/[C@H]1CCCN1C.O=C(O)/C=C\\C(=O)O", 10200],
  ["CCOc1cc2ncc(C#N)c(Nc3ccc(OCc4ccccn4)c(Cl)c3)c2cc1NC(=O)/C=C/[C@H]1CCCN1C.Cc1ccc(S(=O)(=O)O)cc1", 5160],
  ["CCOc1cc2ncc(C#N)c(Nc3ccc(OCc4ccccn4)c(Cl)c3)c2cc1NC(=O)/C=C/[C@H]1CCCN1C [Example 9, dihydrochloride]", 5870]
]}

* * *

test: Pharmacokinetics assay in rats (LC/MS/MS of plasma); type: in vivo, Sprague Dawley (SD) rats; details: both sexes, Sprague-Dawley, rat, plasma, iv, 25 mg/kg, vein (tail vein injection), read-out: MRT
Structures can show the parent of a compound that is named as a salt.

{"columns": ["compound", "MRT"],
 "data": [
  ["CCOc1cc2ncc(C#N)c(Nc3ccc(OCc4ccccn4)c(Cl)c3)c2cc1NC(=O)/C=C/[C@H]1CCCN1C.CS(=O)(=O)O", "5.46 h"],
  ["CCOc1cc2ncc(C#N)c(Nc3ccc(OCc4ccccn4)c(Cl)c3)c2cc1NC(=O)/C=C/[C@H]1CCCN1C.Cc1ccc(S(=O)(=O)O)cc1", "4.2 h"],
  ["CCOc1cc2ncc(C#N)c(Nc3ccc(OCc4ccccn4)c(Cl)c3)c2cc1NC(=O)/C=C/[C@H]1CCCN1C [Example 9, dihydrochloride]", "5.54 h"],
  ["CCOc1cc2ncc(C#N)c(Nc3ccc(OCc4ccccn4)c(Cl)c3)c2cc1NC(=O)/C=C/[C@H]1CCCN1C.O=C(O)/C=C\\C(=O)O", "5.5 h"]
]}

* * *

tested on: human carcinoma SK-BR-3 cells, which have high expression of HER-2; test: HER-2 cell activity assay (SRB, 96 hours); format: cell-based; conditions: read-out: IC50 (HER-2/SK-BR-3), maleate
pIC50: −log10 of the molar value.

{"columns": ["molecule", "test_system", "pIC50"],
 "data": [
  ["CCOc1cc2ncc(C#N)c(Nc3ccc(OCc4ccccn4)c(Cl)c3)c2cc1NC(=O)/C=C/[C@H]1CCCN1C.O=C(O)/C=C\\C(=O)O [Example 1, maleate]", "human carcinoma SK-BR-3 cells, which have high expression of HER-2", 7.19]
]}

* * *

experiment: Pharmacokinetics assay in rats (LC/MS/MS of plasma); assay type: in vivo, Sprague Dawley (SD) rats; conditions: both sexes, Sprague-Dawley, rat, plasma, po, 25 mg/kg, gavage, read-out: AUC0-t
Structures can show the parent of a compound that is named as a salt.
Listed here are compounds together with their documented AUC(0-t).

{"columns": ["compound", "AUC(0-t), ng·h/mL"],
 "data": [
  ["CCOc1cc2ncc(C#N)c(Nc3ccc(OCc4ccccn4)c(Cl)c3)c2cc1NC(=O)/C=C/[C@H]1CCCN1C.O=C(O)/C=C\\C(=O)O [Example 2]", 116000],
  ["CCOc1cc2ncc(C#N)c(Nc3ccc(OCc4ccccn4)c(Cl)c3)c2cc1NC(=O)/C=C/[C@H]1CCCN1C [Example 9, dihydrochloride]", 66100],
  ["CCOc1cc2ncc(C#N)c(Nc3ccc(OCc4ccccn4)c(Cl)c3)c2cc1NC(=O)/C=C/[C@H]1CCCN1C.CS(=O)(=O)O [Example 4]", 92300],
  ["CCOc1cc2ncc(C#N)c(Nc3ccc(OCc4ccccn4)c(Cl)c3)c2cc1NC(=O)/C=C/[C@H]1CCCN1C.Cc1ccc(S(=O)(=O)O)cc1 [Example 7]", 44300]
]}

* * *

test: Pharmacokinetics assay in rats (LC/MS/MS of plasma); type: in vivo, Sprague Dawley (SD) rats; details: both sexes, Sprague-Dawley, rat, plasma, po, 25 mg/kg, gavage
Counter-ions that a name gives are not always drawn.
measurement_label: CL/F (mL/min/kg)

{"columns": ["molecule", "u", "assay_result"],
 "data": [
  ["CCOc1cc2ncc(C#N)c(Nc3ccc(OCc4ccccn4)c(Cl)c3)c2cc1NC(=O)/C=C/[C@H]1CCCN1C.CS(=O)(=O)O [Example 4]", "mL/min/kg", 5.33],
  ["CCOc1cc2ncc(C#N)c(Nc3ccc(OCc4ccccn4)c(Cl)c3)c2cc1NC(=O)/C=C/[C@H]1CCCN1C.Cc1ccc(S(=O)(=O)O)cc1 [Example 7]", "mL/min/kg", 10.5],
  ["CCOc1cc2ncc(C#N)c(Nc3ccc(OCc4ccccn4)c(Cl)c3)c2cc1NC(=O)/C=C/[C@H]1CCCN1C [Example 9, dihydrochloride]", "mL/min/kg", 6.67],
  ["CCOc1cc2ncc(C#N)c(Nc3ccc(OCc4ccccn4)c(Cl)c3)c2cc1NC(=O)/C=C/[C@H]1CCCN1C.O=C(O)/C=C\\C(=O)O [Example 2]", "mL/min/kg", 4.83]
]}

* * *

Tested on: human epidermoid carcinoma A431 cells, which have high expression of EGFR
Assay: EGFR cell proliferation inhibition assay (SRB, 72 hours)
Format: cell-based
Settings: A431 cells, 72 hours, SRB; succinate; read-out: IC50 (EGFR/A431)
Protocol: The activity is represented by the IC50 value. The general procedures of the assay were as follows: the cancer cells A431 highly expressing EGFR were chosen and seeded in a 96-well cell culture plate at a suitable density (e.g., 5000 cells/mL medium). […] The activity of the test compounds for inhibiting the cell proliferation was determined by using a Sulforhodamine B (SRB) method. IC50 values were calculated by the rate of inhibition at various concentrations of the test compounds.
measurement_label: IC50 (nM)

{"columns": ["molecule", "measurement_label", "assay_result"],
 "data": [
  ["CCOc1cc2ncc(C#N)c(Nc3ccc(OCc4ccccn4)c(Cl)c3)c2cc1NC(=O)/C=C/[C@H]1CCCN1C.O=C(O)CCC(=O)O [Example 8, succinate]", "IC50", 15]
]}

* * *

system: human epidermoid carcinoma A431 cells, which have high expression of EGFR; assay: EGFR cell proliferation inhibition assay (SRB, 72 hours); type: cell-based; conditions: A431 cells, 72 hours, SRB; L-malate; read-out: IC50 (EGFR/A431)
pIC50: −log10 of the molar value.

{"columns": ["compound", "test_system", "pIC50"],
 "data": [
  ["CCOc1cc2ncc(C#N)c(Nc3ccc(OCc4ccccn4)c(Cl)c3)c2cc1NC(=O)/C=C/[C@H]1CCCN1C.O=C(O)C[C@H](O)C(=O)O [Example 3, L-malate]", "human epidermoid carcinoma A431 cells, which have high expression of EGFR", 7.54]
]}

* * *

assay: Solubility assay; format: physicochemical; details: water; read-out: Solubility Value, Water
Listed here are compounds together with their documented solubility.
measurement_label: solubility

{"columns": ["entry_smiles", "assay_result"],
 "data": [
  ["CCOc1cc2ncc(C#N)c(Nc3ccc(OCc4ccccn4)c(Cl)c3)c2cc1NC(=O)/C=C/[C@H]1CCCN1C.O=C(O)CCC(=O)O", "22.4 mg/mL"],
  ["CCOc1cc2ncc(C#N)c(Nc3ccc(OCc4ccccn4)c(Cl)c3)c2cc1NC(=O)/C=C/[C@H]1CCCN1C.O=C(O)C[C@H](O)C(=O)O", "17.2 mg/mL"],
  ["CCOc1cc2ncc(C#N)c(Nc3ccc(OCc4ccccn4)c(Cl)c3)c2cc1NC(=O)/C=C/[C@H]1CCCN1C.Cc1ccc(S(=O)(=O)O)cc1", "5.39 mg/mL"]
]}
